system: 26S proteasome (yeast, GFP-tagged, ATP-dependent disassembly); assay: inhibitors of ATP-driven 26S proteasome dissociation, primary screen, biochemical, bead-based flow cytometry, GFP-tagged proteasome (AID 751); conditions: anti-FLAG beads, active compounds read high, concentration not given here;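 also: plate controls were ATP control with full disassembly for no effect and ATP-gamma-S intact proteasomes for full effect; higher percent means more bead fluorescence retained so stronger block of disassembly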
About 40 (0.2%) of roughly 24,000 compounds were called active. Many of the other results were omitted from the sample, so actives are more common in it than they were.
Below, each entry is listed with its recorded inhibition of disassembly.
Numeric only. Scale: %

Example results:
[
  {
    "MOLECULE": "Cc1cc(Nc2cccc(C)c2C)n2ncnc2n1",
    "inhibition of disassembly, %": 1.4
  },
  {
    "MOLECULE": "CCn1cc(C(=O)N2CCN(C3CCCCC3)CC2)c2cc(OC)c(OC)cc2c1=O",
    "inhibition of disassembly, %": -1.25
  },
  {
    "MOLECULE": "CCC(C(=O)Nc1ncccn1)(C(F)(F)F)C(F)(F)F",
    "inhibition of disassembly, %": -0.33
  }
]

Incoming: Give the measured inhibition of disassembly of O=C(CCCN1C(=O)C2C3C=CC(C3)C2C1=O)N1CCN(c2ccccc2)CC1 (stereo unspecified) .
Outgoing: -1.14

Incoming: Also need O=C(NC1(C(F)(F)F)N=C2SCCN2C1=O)c1ccco1 (stereo unspecified) , thanks.
Outgoing: 1.38

Incoming: Here is the next molecule: `Nc1nonc1C(=O)NCCc1ccccc1`
Outgoing: -0.31

----------
tested on: 26S proteasome (yeast, GFP-tagged, ATP-dependent disassembly); assay: inhibitors of ATP-driven 26S proteasome dissociation, primary screen, biochemical, bead-based flow cytometry, GFP-tagged proteasome (AID 751); conditions: anti-FLAG beads, active compounds read high, concentration not given here;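 also: plate controls were ATP control with full disassembly for no effect and ATP-gamma-S intact proteasomes for full effect; higher percent means more bead fluorescence retained so stronger block of disassembly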
Among all 24,000 compounds or so, about 40 (0.2%) were called active. For the sample, actives were picked, then their nearest neighbours and some compounds at random.
MEASURE: inhibition of disassembly (%)
The reply should be a number in %, with the unit left off.

Some entries whose results are on file:
[
  {
    "MOLECULE": "Cc1ccc(C(c2sc3nc(C)nn3c2O)N2CCN(c3ccc(F)cc3)CC2)cc1 (stereo not given)",
    "MEASURE": "inhibition of disassembly",
    "OBSERVED MEASUREMENT": -0.24
  },
  {
    "MOLECULE": "COc1ccc(OC)c(NC(=O)CC(Cc2ccccc2OC)C(=O)O)c1 (stereo not given)",
    "MEASURE": "inhibition of disassembly",
    "OBSERVED MEASUREMENT": -1.04
  },
  {
    "MOLECULE": "CC(=O)C1C(c2cccc(Oc3ccccc3)c2)NC(=O)NC1(O)C(F)(F)F (stereo not given)",
    "MEASURE": "inhibition of disassembly",
    "OBSERVED MEASUREMENT": 3.33
  },
  {
    "MOLECULE": "COc1ccc(CC(=O)Nc2c3c(nn2-c2cccc(Cl)c2)CS(=O)C3)cc1 (stereo not given)",
    "MEASURE": "inhibition of disassembly",
    "OBSERVED MEASUREMENT": -0.575
  }
]

Let's switch to this molecule now.
Incoming: Item `Cc1c2cnn(-c3ccccc3)c(=O)c2c(C)n1CCCC(=O)N1CCN(C)CC1` has what recorded inhibition of disassembly?
Outgoing: 0.62
